target: Autotaxin (Homo sapiens, UniProt Q13822); assay: Inhibition of ATX (unknown origin) assessed as decrease in choline release
// reported IC50 for each item listed
metric_name: IC50 (µM)

INSERT INTO measurements (compound, endpoint_result) VALUES
  ('O=C(CCN1CCN(C(=O)OCC2CCCC2)CC1)c1ccc2[nH]c(=O)oc2c1', 0.17),
  ('O=C(NCC1(O)CCN(C(=O)OCc2cc(Cl)cc(Cl)c2)CC1)c1ccc2[nH]c(=O)oc2c1', 0.008),
  ('O=C(CCN1CCN(C(=O)OCC2CCCCC2)CC1)c1ccc2[nH]c(=O)oc2c1', 0.24),
  ('O=C(CCCc1c[nH]nn1)NC1CCN(C(=O)OCc2ccc(C(F)(F)F)cc2)CC1', 0.039),
  ('O=C(NCCC1CN(C(=O)OCc2cc(Cl)cc(Cl)c2)CCO1)c1ccc2[nH]c(=O)oc2c1 (racemic)', 0.01),
  ('O=C(CCCc1c[nH]nn1)NC1CCN(C(=O)OCc2cc(Cl)cc(Cl)c2)CC1', 0.0031),
  ('O=C(CCN1CCN(C(=O)OCc2ccccc2)CC1)c1ccc2[nH]c(=O)oc2c1', 0.13),
  ('O=C(NCCN1CCN(C(=O)OCc2cc(Cl)cc(Cl)c2)CC1)c1c[nH]c(=O)o1', 0.37),
  ('Cn1cc(CCCC(=O)NC2CCN(C(=O)OCc3cc(Cl)cc(Cl)c3)CC2)nn1', 1.37),
  ('O=C(OCc1cc(Cl)cc(Cl)c1)N1CCC(N2CCN(C(=O)c3ccc4[nH]c(=O)oc4c3)CC2)C1 (racemic)', 0.018),
  ('O=C(OCc1cc(Cl)cc(Cl)c1)N1CC(N2CCN(C(=O)c3ccc4[nH]c(=O)oc4c3)CC2)C1', 0.0039),
  ('O=C(NCCC1CCN(C(=O)OCc2cc(Cl)cc(Cl)c2)CC1)c1c[nH]c(=O)o1', 0.086),
  ('N#Cc1cc(Cl)cc(COC(=O)N2CCC(NC(=O)CCCc3c[nH]nn3)CC2)c1', 0.0077),
  ('CN(CCC1CCN(C(=O)OCc2cc(Cl)cc(Cl)c2)CC1)C(=O)c1c[nH]nn1', 0.15);

* * *

experiment: Fraction unbound in human plasma at 5 uM after 2 to 6 hrs by rapid equilibrium dialysis method; assay type: ADME, cell-free
metric_name: fraction unbound at 5 µM

INSERT INTO assay_data (cpd_smiles, endpoint_result) VALUES
  ('O=C(CCCc1c[nH]nn1)NC1CCN(C(=O)OCc2cc(Cl)cc(Cl)c2)CC1', 0.026),
  ('CN(CCC1CCN(C(=O)OCc2cc(Cl)cc(Cl)c2)CC1)C(=O)c1c[nH]c(=O)o1', 0.005);

* * *

assay: Half life in Sprague-Dawley rat at 1 mg/kg, iv; assay type: ADME, organism-based; details: in vivo
metric_name: half-life (h)

INSERT INTO assay_data (cpd_smiles, endpoint_result) VALUES
  ('O=C(CCCc1c[nH]nn1)NC1CCN(C(=O)OCc2cc(Cl)cc(Cl)c2)CC1', 5.3),
  ('CN(CCC1CCN(C(=O)OCc2cc(Cl)cc(Cl)c2)CC1)C(=O)c1c[nH]c(=O)o1', 4.8);

* * *

// reported AUC for each item listed
tested on: Rattus norvegicus; experiment: AUC (0 to infinity) in Sprague-Dawley rat at 10 mg/kg, po; assay type: ADME, organism-based; set-up: dose 10 mg/kg, time infinity, route oral; conditions: in vivo
metric_name: AUC (µM·h)

INSERT INTO results (cpd_smiles, assay_target, endpoint_result) VALUES
  ('CN(CCC1CCN(C(=O)OCc2cc(Cl)cc(Cl)c2)CC1)C(=O)c1c[nH]c(=O)o1', 'Rattus norvegicus', 25),
  ('O=C(CCCc1c[nH]nn1)NC1CCN(C(=O)OCc2cc(Cl)cc(Cl)c2)CC1', 'Rattus norvegicus', 17);

* * *

// reported microsomal CLint at 1 µM for each item listed
assay: Intrinsic clearance in Sprague-Dawley rat liver microsomes at 1 uM by HPLC analysis; format: ADME, microsome; details: read-out: CLH
metric_name: microsomal CLint at 1 µM (µL/min/mg)

INSERT INTO measurements (cpd_smiles, metric_name, display_unit, endpoint_result) VALUES
  ('O=C(CCCc1c[nH]nn1)NC1CCN(C(=O)OCc2cc(Cl)cc(Cl)c2)CC1', 'microsomal CLint at 1 µM', 'µL/min/mg', 104),
  ('CN(CCC1CCN(C(=O)OCc2cc(Cl)cc(Cl)c2)CC1)C(=O)c1c[nH]c(=O)o1', 'microsomal CLint at 1 µM', 'µL/min/mg', 235),
  ('CN(CCC1CCN(C(=O)OCc2cc(Cl)cc(Cl)c2)CC1)C(=O)c1c[nH]nn1', 'microsomal CLint at 1 µM', 'µL/min/mg', 51),
  ('O=C(CCc1c[nH]nn1)NC1CCN(C(=O)OCc2cc(Cl)cc(Cl)c2)CC1', 'microsomal CLint at 1 µM', 'µL/min/mg', 75);

* * *

// reported solubility thermodynamic for each item listed
assay: Equilibrium solubility of compound at pH 6.8 by high-throughput screening method; conditions: buffer
metric_name: solubility thermodynamic (µg/mL)

INSERT INTO assay_data (cpd_smiles, metric_name, endpoint_result) VALUES
  ('O=C(NCCC1CCN(C(=O)OCc2cc(Cl)cc(Cl)c2)CC1)c1c[nH]c(=O)o1', 'solubility thermodynamic', 80),
  ('O=C(NCCN1CCN(C(=O)OCc2cc(Cl)cc(Cl)c2)CC1)c1c[nH]c(=O)o1', 'solubility thermodynamic', 60);

* * *

experiment: Permeability assessed as drug absorption at 50 ug/ml after 5 hrs by PAMPA; conditions: at 50 µg/mL
Response field label takes satisfied when Drug absorption is strictly below 40% and not satisfied in all other cases.

INSERT INTO results (cpd_smiles, cat) VALUES
  ('CN(C(=O)CCCc1c[nH]nn1)C1CCN(C(=O)OCc2cc(Cl)cc(Cl)c2)CC1', 'not satisfied'),
  ('N#Cc1cc(Cl)cc(COC(=O)N2CCC(NC(=O)CCCc3c[nH]nn3)CC2)c1', 'satisfied'),
  ('O=C(NCCN1CCN(C(=O)OCc2cc(Cl)cc(Cl)c2)CC1)c1c[nH]c(=O)o1', 'satisfied'),
  ('CN(CCC1CCN(C(=O)OCc2cc(Cl)cc(Cl)c2)CC1)C(=O)c1c[nH]nn1', 'not satisfied'),
  ('O=C(CCCc1c[nH]nn1)NC1CCN(C(=O)OCc2ccc(Cl)cc2Cl)CC1', 'not satisfied'),
  ('O=C(CCCc1c[nH]nn1)NC1CCN(C(=O)OCc2cc(F)cc(Cl)c2)CC1', 'satisfied'),
  ('O=C(CCN1CCN(C(=O)OCc2cc(Cl)cc(Cl)c2)CC1)c1ccc2[nH]c(=O)oc2c1', 'not satisfied'),
  ('O=C(CCCc1c[nH]nn1)NC1CCN(C(=O)OCc2ccc(C(F)(F)F)cc2)CC1', 'satisfied'),
  ('O=C(CCCc1c[nH]nn1)NC1CCN(C(=O)OCc2cc(Cl)cc(Cl)c2)CC1', 'not satisfied'),
  ('O=C(NCCC1CCN(C(=O)OCc2cc(Cl)cc(Cl)c2)CC1)c1c[nH]c(=O)o1', 'not satisfied');

* * *

assay: Oral bioavailability in Lewis rat at 1 to 100 mg/kg dosed via gavage after 1.25 to 24 hrs; type: ADME, organism-based; details: in vivo
metric_name: bioavailability

INSERT INTO measurements (cpd_smiles, endpoint_result) VALUES
  ('O=C(CCN1CCN(C(=O)OCc2cc(Cl)cc(Cl)c2)CC1)c1ccc2[nH]c(=O)oc2c1', '43 to 83%');

* * *

target: Voltage-gated inwardly rectifying potassium channel KCNH2 (Homo sapiens, UniProt Q12809); assay: Inhibition of human ERG expressed in CHO-K1 cells at -90 mV holding potential by Qpatch clamp assay
Sequence (Q12809 whole entry): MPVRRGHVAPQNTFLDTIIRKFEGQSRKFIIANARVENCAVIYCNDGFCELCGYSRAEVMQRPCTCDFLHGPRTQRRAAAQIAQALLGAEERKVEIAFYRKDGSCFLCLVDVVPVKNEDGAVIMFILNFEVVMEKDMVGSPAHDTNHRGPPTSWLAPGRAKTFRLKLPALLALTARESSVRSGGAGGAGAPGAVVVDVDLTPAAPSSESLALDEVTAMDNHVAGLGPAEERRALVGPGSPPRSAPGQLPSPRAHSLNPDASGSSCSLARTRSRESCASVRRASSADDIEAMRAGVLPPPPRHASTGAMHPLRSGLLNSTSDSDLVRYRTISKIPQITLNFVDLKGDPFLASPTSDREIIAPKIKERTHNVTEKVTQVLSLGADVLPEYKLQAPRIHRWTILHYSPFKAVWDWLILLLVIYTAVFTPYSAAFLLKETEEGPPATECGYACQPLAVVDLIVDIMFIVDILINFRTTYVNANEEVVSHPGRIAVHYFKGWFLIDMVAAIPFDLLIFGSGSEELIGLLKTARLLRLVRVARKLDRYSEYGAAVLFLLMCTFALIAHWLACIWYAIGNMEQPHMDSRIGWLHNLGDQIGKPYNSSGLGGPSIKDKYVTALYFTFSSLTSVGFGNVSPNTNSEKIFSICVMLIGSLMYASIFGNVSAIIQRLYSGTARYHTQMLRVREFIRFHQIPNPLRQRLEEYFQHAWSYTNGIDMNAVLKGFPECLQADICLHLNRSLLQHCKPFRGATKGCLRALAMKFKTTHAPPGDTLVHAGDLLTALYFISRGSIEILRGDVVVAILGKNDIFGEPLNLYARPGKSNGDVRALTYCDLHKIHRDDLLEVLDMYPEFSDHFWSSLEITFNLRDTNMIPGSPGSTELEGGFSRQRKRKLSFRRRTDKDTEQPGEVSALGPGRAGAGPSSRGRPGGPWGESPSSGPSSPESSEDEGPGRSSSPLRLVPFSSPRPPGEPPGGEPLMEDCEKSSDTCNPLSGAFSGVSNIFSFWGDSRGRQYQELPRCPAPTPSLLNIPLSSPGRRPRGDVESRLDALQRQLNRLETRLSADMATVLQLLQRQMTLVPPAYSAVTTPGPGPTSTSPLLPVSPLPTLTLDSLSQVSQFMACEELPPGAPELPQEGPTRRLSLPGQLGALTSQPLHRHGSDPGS
pIC50: −log10 of the molar value.
// reported pIC50 for each item listed
metric_name: pIC50

INSERT INTO measurements (cpd_smiles, assay_target, metric_name, endpoint_result) VALUES
  ('O=C(CCCc1c[nH]nn1)NC1CCN(C(=O)OCc2cc(Cl)cc(Cl)c2)CC1', 'Voltage-gated inwardly rectifying potassium channel KCNH2 (Homo sapiens, UniProt Q12809)', 'pIC50', 4.68),
  ('CN(CCC1CCN(C(=O)OCc2cc(Cl)cc(Cl)c2)CC1)C(=O)c1c[nH]nn1', 'Voltage-gated inwardly rectifying potassium channel KCNH2 (Homo sapiens, UniProt Q12809)', 'pIC50', 5.07);

* * *

assay: Fraction unbound in rat plasma at 5 uM after 2 to 6 hrs by rapid equilibrium dialysis method; type: ADME, cell-free
metric_name: fraction unbound at 5 µM

INSERT INTO measurements (cpd_smiles, endpoint_result) VALUES
  ('O=C(CCCc1c[nH]nn1)NC1CCN(C(=O)OCc2cc(Cl)cc(Cl)c2)CC1', 0.04);
